Provide the reported kon of each item.
target: T1, His-tagged cynomolgus monkey TIGIT (cynomolgus monkey, UniProt A0A7N9I9V4 89-209); experiment: SPR Biacore, antibody captured on anti-human Fc, His-tagged TIGIT injected
T1 construct: also called Cyno TIGIT; cynomolgus monkey TIGIT (Novoprotein cat. No. CP02)
T1 sequence (A0A7N9I9V4 entry or part of it): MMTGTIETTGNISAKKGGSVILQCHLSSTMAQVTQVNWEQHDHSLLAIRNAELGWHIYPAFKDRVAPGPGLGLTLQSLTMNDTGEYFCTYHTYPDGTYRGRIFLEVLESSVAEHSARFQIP
Numbers only, in M⁻¹ s⁻¹.

Exercise: Form field: reported kon of 3964A06 (antibody, human IgG1, V domains shown) VH: EVQLVQSGSELKKPGASVKVSCKASGYTFTAYPMNWVRQAPGQGLEWMGWINTNTGNPTYAQGFTGRFVFSLDTSVSTAYLQISSLKAEDTAVYYCARVGGYSVYDYAFDIWGQGTMVTVSS VL: DIQLTQSPSFLSASVGDRVTITCRASQGISSYLAWYQQKPGKAPKLLIYAASTLQSGVPSRFSGSGSGTEFTLTISSLQPEDFATYYCQQLNSYPTFGGGTKVEIK
Solution: 109000

Exercise: Similarly, 3963H03-12 (antibody, human IgG1, kappa, V domains shown, also called anti-TIGIT H03-12; 39631H03-12) VH: QVQLVQSGSELKKPGASVKVSCKASGYTFTSYPMNWVRQAPGQGLEWMGWINTNTGNPTYAQGFTGRFVFSLDTSVSTAYLQISSLKAEDTAVYYCARVGGYSVDEYAFDVWGQGTLVTVSS VL: DIQLTQSPSFLSASVGDRVTITCRASQGISSYLAWYQQKPGKAPKLLIYAASTLQSGVPSRFSGSGSGTEFTLTISSLQPEDFATYYCQQLSSYPTFGGGTKVEIKR ?
Solution: 160000

Here is another binder to look at.
Exercise: Form field: reported kon of 7729G05 (antibody, V domains shown, constant regions correspond to those of H03-12) VH: QVQLVQSGSELKKPGASVKVSCKASGYTFTSYPMNWVRQAPGQGLEWMGWINTNTGNPTYAQGFTGRFVFSLDTSVSTAYLQISSLKAEDTAVYYCARVGGFTVPEYAFDIWGQGTTVTVSS VL: DIRLTQSPSFLSASVGDRVTITCRASQGISSYLAWYQQKPGKAPKLLIYAASTLQSGVPSRFSGSGSGTEFTLTISSLQPEDFATYYCGQVMRYPAFGGGTKVEIK
Solution: 581000

Values from patent US20220403022A1
